target: E. histolytica PanK (EhPanK) recombinant enzyme (Entamoeba histolytica, UniProt B1N2P3); experiment: biochemical; details: read-out: IC50 against EhPanK activity
Sequence (B1N2P3 entry or part of it): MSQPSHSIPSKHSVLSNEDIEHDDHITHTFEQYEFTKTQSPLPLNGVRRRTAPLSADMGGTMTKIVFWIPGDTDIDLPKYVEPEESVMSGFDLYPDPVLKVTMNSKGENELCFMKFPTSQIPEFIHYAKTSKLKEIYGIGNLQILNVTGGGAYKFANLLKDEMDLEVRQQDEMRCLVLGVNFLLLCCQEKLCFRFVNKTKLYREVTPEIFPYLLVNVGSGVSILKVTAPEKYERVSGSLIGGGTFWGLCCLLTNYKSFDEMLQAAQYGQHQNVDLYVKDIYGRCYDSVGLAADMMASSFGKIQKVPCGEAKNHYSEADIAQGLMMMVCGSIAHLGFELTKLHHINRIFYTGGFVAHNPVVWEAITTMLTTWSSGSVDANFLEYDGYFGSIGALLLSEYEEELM
pIC50: −log10 of the molar value.
reported-endpoint: pIC50

| compound | measured-result |
| --- | --- |
| O=C1OC2(OC=C(c3ccccc3)C2=O)c2ccccc21 (stereo not shown) | 3.46 |

---

Each entry below carries its reported Relative activity (phosphoryl donor).
biological target: E. histolytica pantothenate kinase (Entamoeba histolytica, UniProt B1N2P3); test: Phosphoryl donor specificity of EhPanK; format: biochemical; conditions: donor 100 μM, 0.2 mM pantothenate, 10 mM MgCl2, 37 °C, pH 6; relative to ATP; ND = not detected
Sequence (B1N2P3 entry or part of it): as above
reported-endpoint: Relative activity (phosphoryl donor) (%)

| molecule | measurement-unit | measured-result |
| --- | --- | --- |
| Nc1ccn([C@@H]2O[C@H](COP(=O)(O)OP(=O)(O)OP(=O)(O)O)[C@@H](O)[C@H]2O)c(=O)n1 [CTP] | % | 1.4 |
| Nc1ncnc2c1ncn2[C@@H]1O[C@H](COP(=O)(O)OP(=O)(O)OP(=O)(O)O)[C@@H](O)[C@H]1O [ATP] | % | 100.0 |
| O=P(O)(O)OP(=O)(O)OP(=O)(O)O [Tripolyphosphate] | % | 16.9 |
